ED85 reference
test system: Abutilon theophrasti; test: Post-emergence herbicidal activity against Abutilon theophrasti (velvetleaf); assay type: functional

-- ask Give the reported ED85 for this compound. "Fc1cc(C(F)(F)F)cc(Cl)c1Oc1ccc2nn[nH]c2c1"
-- reply 250 g/ha

-- ask Give the reported ED85 for this compound. "COC(=O)[C@H](C)n1nnc2ccc(Oc3c(F)cc(C(F)(F)F)cc3Cl)cc21"
-- reply <32 g/ha

-- ask Give the reported ED85 for this compound. CC(C(=O)O)n1nnc2ccc(Oc3c(F)cc(C(F)(F)F)cc3Cl)cc21 (stereo not drawn)
-- reply 1 g/ha

-- ask Give the reported ED85 for this compound. "COC(=O)CCn1nnc2ccc(Oc3c(F)cc(C(F)(F)F)cc3Cl)cc21"
-- reply <32 g/ha

-- ask Give the reported ED85 for this compound. CC(C(N)=O)n1nnc2ccc(Oc3c(F)cc(C(F)(F)F)cc3Cl)cc21 (stereo not drawn)
-- reply <32 g/ha

-- ask Give the reported ED85 for this compound. "CCn1nnc2ccc(Oc3c(F)cc(C(F)(F)F)cc3Cl)cc21"
-- reply <32 g/ha

-- ask Give the reported ED85 for this compound. "COC(=O)Cn1nnc2ccc(Oc3c(F)cc(C(F)(F)F)cc3Cl)cc21"
-- reply >8 g/ha

-- ask Give the reported ED85 for this compound. "C#CCn1nnc2ccc(Oc3c(F)cc(C(F)(F)F)cc3Cl)cc21"
-- reply 250 g/ha

---

system: Digitaria sanguinalis; assay: Post-emergence herbicidal activity against Digitaria sanguinalis (hairy crabgrass); format: functional
log10 ED85 reference
Short version: log10 scale, ED85, g/ha.

Worked cases, log10 ED85 given:
C#CCn1nnc2ccc(Oc3c(F)cc(C(F)(F)F)cc3Cl)cc21 | 2.70
COC(=O)[C@H](C)n1nnc2ccc(Oc3c(F)cc(C(F)(F)F)cc3Cl)cc21 | 2.10
CC(C(N)=O)n1nnc2ccc(Oc3c(F)cc(C(F)(F)F)cc3Cl)cc21 (stereo not drawn) | 1.80
CC(C(=O)O)n1nnc2ccc(Oc3c(F)cc(C(F)(F)F)cc3Cl)cc21 (stereo not drawn) | 0.90

Turning now to a further molecule:
-- ask Give the reported log10 ED85 for this molecule. "Fc1cc(C(F)(F)F)cc(Cl)c1Oc1ccc2nn[nH]c2c1"
-- reply 2.40

---

ED85 reference
system: Ipomoea purpurea; test: Post-emergence herbicidal activity against Ipomoea purpurea (common morning-glory); type: functional

-- ask Give the reported ED85 for this compound. CC(C(N)=O)n1nnc2ccc(Oc3c(F)cc(C(F)(F)F)cc3Cl)cc21 (stereo not drawn)
-- reply <32 g/ha

---

system: Plasmopara viticola; test: Fungicidal activity against Plasmopara viticola; type: functional
EC80 reference
Provide the reading as a plain figure in µg/mL.

CCC#CCOc1ccc(CCNC(=O)[C@H](CC(C)C)NS(C)(=O)=O)cc1OC | 18

Turning now to a further compound:
-- ask Give the reported EC80 for this compound. CCC#CCOc1ccc(CCNC(=O)C(NS(C)(=O)=O)C(CC)CC)cc1OC (racemic)
-- reply 16

---

test system: Plasmopara viticola; test: Fungicidal activity against Plasmopara viticola; type: functional
Lab note: anything with EC80 below 20 µg/mL is marked label 1; values at 20 µg/mL or higher are marked label 0.

Illustrative cases are given below, each with its answer.
CCC#CCOc1ccc(CCNC(=O)[C@H](CCC(=O)O)NS(C)(=O)=O)cc1OC | label 0
CCC#CCOc1ccc(CCNC(=O)[C@@H](NS(C)(=O)=O)[C@@H](C)O)cc1OC | label 0
CCC#CCOc1ccc(CCNC(=O)[C@@H](NS(C)(=O)=O)C(C)C)cc1OC | label 1
CCC#CCOc1ccc(CCNC(=O)[C@H](CCSC)NS(C)(=O)=O)cc1OC | label 0
CCC#CCOc1ccc(CCNC(=O)[C@@H](NS(C)(=O)=O)[C@@H](C)CC)cc1OC | label 1

-- ask Hello, is EC80 of the following molecule strictly smaller than 20 µg/mL? C=CCC(NS(C)(=O)=O)C(=O)NCCc1ccc(OCC#CCC)c(OC)c1 (racemic)
-- reply label 0

-- ask Hello, is EC80 of the following molecule strictly smaller than 20 µg/mL? CCC#CCOc1ccc(CCNC(=O)C(NS(C)(=O)=O)c2ccc(Cl)cc2)cc1OC (racemic)
-- reply label 1

-- ask Hello, is EC80 of the following molecule strictly smaller than 20 µg/mL? "CCC#CCOc1ccc(CCNC(=O)[C@H](C)NS(C)(=O)=O)cc1OC"
-- reply label 0

---

ED85 reference
tested on: Digitaria sanguinalis; assay: Post-emergence herbicidal activity against Digitaria sanguinalis (hairy crabgrass); format: functional

COC(=O)CCn1nnc2ccc(Oc3c(F)cc(C(F)(F)F)cc3Cl)cc21 | <32 g/ha
COC(=O)Cn1nnc2ccc(Oc3c(F)cc(C(F)(F)F)cc3Cl)cc21 | >8 g/ha

-- ask Give the reported ED85 for this compound. "CCn1nnc2ccc(Oc3c(F)cc(C(F)(F)F)cc3Cl)cc21"
-- reply >500 g/ha

---

ED85 reference
test system: Ipomoea purpurea; test: Post-emergence herbicidal activity against Ipomoea purpurea (common morning-glory); type: functional

CC(C(=O)O)n1nnc2ccc(Oc3c(F)cc(C(F)(F)F)cc3Cl)cc21 (configuration not stated) | <0.5 g/ha
COC(=O)[C@H](C)n1nnc2ccc(Oc3c(F)cc(C(F)(F)F)cc3Cl)cc21 | <32 g/ha
COC(=O)Cn1nnc2ccc(Oc3c(F)cc(C(F)(F)F)cc3Cl)cc21 | 0.5 g/ha
C#CCn1nnc2ccc(Oc3c(F)cc(C(F)(F)F)cc3Cl)cc21 | <32 g/ha

-- ask Give the reported ED85 for this molecule. "CCn1nnc2ccc(Oc3c(F)cc(C(F)(F)F)cc3Cl)cc21"
-- reply <32 g/ha

-- ask Give the reported ED85 for this molecule. "Fc1cc(C(F)(F)F)cc(Cl)c1Oc1ccc2nn[nH]c2c1"
-- reply <32 g/ha

-- ask Give the reported ED85 for this molecule. "COC(=O)CCn1nnc2ccc(Oc3c(F)cc(C(F)(F)F)cc3Cl)cc21"
-- reply <32 g/ha
